# Test system: MS2 coat protein
# EXPERIMENTAL_DETAILS: apparent Kd, MS2 coat protein; higher = weaker binding; RNA-MaP array; FMN 200 µM where present
# CONDITION_LABEL: designed as: OFF switch for flavin mononucleotide; no ligand
PROPERTY_LABEL: apparent Kd (µM)
Answers are plain numbers, in µM.

# example entries with known answers
SEQUENCE_ENTRY	PROPERTY_LABEL	UNITS	TEST_RESULT
AUAUAGAUGGUCAGGAUAUGCUAGUGGUAACAGUAGCAGAAGGGACAUGAGGAUCACCCAUGUAGAUACUGCUC	apparent Kd	µM	0.018
UGUGCGUUGAUCUUCGAUCGGAGUACAUGAGGAUCACCCAUGUAGGAUAUUCAAAGACGCAGAUAGGAGAAGGACAUCGGAUUA	apparent Kd	µM	0.00963
UAUUUAUAGCAAGGAUAUGAUUAUUAUUAUUUAUCAGAAGGUGCACAUGAGGAUCACCCAUGUUUUACAAUUUGUAAUUUAAUU	apparent Kd	µM	0.0386
UAUGGGUGUGUGAGGAUAUACGAAGGCAGUGGCCAGUAGAAGGUACAUGAGGAUCACCCAUGUGUCCAAAAGUG	apparent Kd	µM	0.0141
GUAAAGUGAGGAUAUGGUAAAGUAAGUAUGUAGUAAGUAAUCCAGAAGGCACAUGAGGAUCACCCAUGUAAAUG	apparent Kd	µM	0.03
GGAUAGGACAGAGGAUAUACGUGCUAGAGAUACUAGCAAAAUUUCCUCACAUGAGGAUCACCCAUGUAGAAGGCUGUCCCAUCG	apparent Kd	µM	0.0153

For each of the items listed, what is its apparent Kd?
1. GGAUCGAUGUAGAAGGCUGUCUUAAAAUAGGACAGAGGAUAUACAUGAGGAUCACCCAUGUACUCCUUUAAAAUGAUCCAAAUA
2. GCCUUAUCGGUCAGGAUAUACACCCGCCAGUUGUUGUAGAAGGGACAUGAGGAUCACCCAUGUACAUUACAUUG
3. CGUUAUUCAGGAUAUGGUGUGUUAUACAUGAGGAUCACCCAUGUAGAUCCUGGUUAGGCCUCAGAAGGGAAUGUUC
4. AUAAUGAGAGGAUAUACAUGAGGAUCACCCAUGUAAUUAACACGGCGAGCUCCAAUACGUAGAAGGCUCAUUUA

Output:
1. 0.00581
2. 0.0212
3. 0.165
4. 0.0492
